# Test Method Notes: blood brain barrier permeability: plasma and brain concentrations by LC-MS
# Type: in vivo, mice
# Measurement Conditions: mouse, plasma, intraperitoneal, 25 mg/kg
Reported Endpoint: concentration at 30 min
Could you kindly put the unit after your number?

Measured concentration at 30 min, CN(CC(=O)N(Cc1ccc(C2CCCCC2)cc1)c1ccc(C(=O)O)cc1)S(=O)(=O)c1c(F)c(F)c(F)c(F)c1F [Compound 31] : 580 nM

* * *

# Test system: BTSC30M
# Test Method Notes: alamarBlue cell viability, BTSC 30M
# Format: cell-based, human
# Measurement Conditions: Homo sapiens, read-out: IC50 (nM) in BTSC 30M
For each entry below, report its IC50 value.

The recorded IC50 for `CC(=O)Oc1cc(N(Cc2ccc(C3CCCCC3)cc2)C(=O)CN(C)S(=O)(=O)c2c(F)c(F)c(F)c(F)c2F)ccc1C(=O)O` is 526 nM

GET /value?item= `CN(CC(=O)N(Cc1ccc(C2CCCCC2)cc1)c1ccc(C(=O)O)c(F)c1)S(=O)(=O)c1c(F)c(F)c(F)c(F)c1F` &field=IC50 returns 724 nM

Memo: `CN(CC(=O)N(Cc1ccc(C2CCCCC2)cc1)c1ccc(C(=O)O)cc1)S(=O)(=O)c1c(F)c(F)c(F)c(F)c1F` , reported IC50: 432 nM

GET /value?item= `CN(CC(=O)N(Cc1ccc(C2CCCCC2)cc1)c1ccc(C(=O)NO)cc1)S(=O)(=O)c1c(F)c(F)c(F)c(F)c1F` &field=IC50 returns 1140 nM

* * *

# Test Method Notes: blood brain barrier permeability: plasma and brain concentrations by LC-MS
# Type: in vivo, mice
# Measurement Conditions: mouse, plasma, intraperitoneal, 10 mg/kg
Reported Endpoint: concentration at 30 min (nM)
Provide the reading as a plain figure in nM.

Item: CN(CC(=O)N(Cc1ccc(C2CCCCC2)cc1)c1ccc(C(=O)O)cc1)S(=O)(=O)c1c(F)c(F)c(F)c(F)c1F [Compound 31] | concentration at 30 min: 240

* * *

Please respond with reported IC50 for every item in the list.
# Test system: BTSC73M
# Test Method Notes: alamarBlue cell viability, BTSC 73M
# Assay type: cell-based, human
# Measurement Conditions: Homo sapiens; Table 4 library screen, alamarBlue; read-out: 73M IC50
Note: unit nM is implicit; provide only the numeric part.

# IC50 measured on BTSC73M for item CN(CC(=O)N(Cc1ccc(C2CCCCC2)cc1)c1ccc(-c2nnn[nH]2)cc1)S(=O)(=O)c1c(F)c(F)c(F)c(F)c1F [Compound 35] = 2770

CN(CC(=O)N(Cc1ccc(C2CCCCC2)cc1)c1ccc(O)c(C(=O)O)c1)S(=O)(=O)c1c(F)c(F)c(F)c(F)c1F [Compound 38] on BTSC73M gives IC50 = 2550

Item CN(CC(=O)N(Cc1ccc(C2CCCCC2)cc1)c1ccc(NC(=O)Cc2nnn[nH]2)cc1)S(=O)(=O)c1c(F)c(F)c(F)c(F)c1F [Compound 41] ; assay system BTSC73M; IC50 reported as 3500

IC50 value, target or system BTSC73M, for CC(=O)Oc1cc(N(Cc2ccc(C3CCCCC3)cc2)C(=O)CN(C)S(=O)(=O)c2c(F)c(F)c(F)c(F)c2F)ccc1C(=O)O [Compound 22] : 1450

Bench note, BTSC73M: entry COC(=O)c1ccc(N(Cc2ccc(C3CCCCC3)cc2)C(=O)CN(C)S(=O)(=O)c2c(F)c(F)c(F)c(F)c2F)cc1 [Compound 39] , its IC50 = 3320

The molecule CN(CC(=O)N(Cc1ccc(C2CCCCC2)cc1)c1cccc(O)c1)S(=O)(=O)c1c(F)c(F)c(F)c(F)c1F [Compound 30] on BTSC73M: IC50 was 2840

CN(CC(=O)N(Cc1ccc(C2CCCCC2)cc1)c1ccc(N)cc1)S(=O)(=O)c1c(F)c(F)c(F)c(F)c1F [Compound 10] on BTSC73M gives IC50 = 1810

Bench note, BTSC73M: entry CN(CC(=O)N(Cc1ccc(C2CCCCC2)cc1)c1ccc([N+](=O)[O-])cc1)S(=O)(=O)c1c(F)c(F)c(F)c(F)c1F [Compound 8] , its IC50 = 1100

// returns IC50 for CN(CC(=O)N(Cc1ccc(C2CCCCC2)cc1)c1ccc(NS(N)(=O)=O)cc1)S(=O)(=O)c1c(F)c(F)c(F)c(F)c1F [Compound 16] with BTSC73M; value = 2040

Log: BTSC73M, molecule CC(=O)OCOC(=O)c1ccc(N(Cc2ccc(C3CCCCC3)cc2)C(=O)CN(C)S(=O)(=O)c2c(F)c(F)c(F)c(F)c2F)cc1 [Compound 26] , IC50 = 4340

The molecule CN(CC(=O)N(Cc1ccc(C2CCCCC2)cc1)c1ccc(C(=O)O)c(F)c1)S(=O)(=O)c1c(F)c(F)c(F)c(F)c1F [Compound 33] , when measured on BTSC73M, yielded IC50 of 1230

IC50 on BTSC73M for CCOP(=O)(Cc1ccc(N(Cc2ccc(C3CCCCC3)cc2)C(=O)CN(C)S(=O)(=O)c2c(F)c(F)c(F)c(F)c2F)cc1)OCC [Compound 20] is 1820

Hey, BTSC73M data for CN(CC(=O)N(Cc1ccc(C2CCCCC2)cc1)c1ccc(NS(C)(=O)=O)cc1)S(=O)(=O)c1c(F)c(F)c(F)c(F)c1F [Compound 14] : IC50 came out at 1810

The reported IC50 value, BTSC73M, for CN(CC(=O)N(Cc1ccc(C2CCCCC2)cc1)c1ccc(C(=O)O)cc1)S(=O)(=O)c1c(F)c(F)c(F)c(F)c1F [Compound 31] reads 1030

The molecule CCOC(=O)C(=O)Nc1ccc(N(Cc2ccc(C3CCCCC3)cc2)C(=O)CN(C)S(=O)(=O)c2c(F)c(F)c(F)c(F)c2F)cc1 [Compound 17] , when measured on BTSC73M, yielded IC50 of 1240

* * *

# System: BTSC73M
# Test Method Notes: alamarBlue cell viability, BTSC 73M
# Format: cell-based, human
# Measurement Conditions: Homo sapiens, read-out: 73M IC50 (μM)
Reported Endpoint: IC50 (µM)
Numeric answer only, unit µM assumed.

Reading of IC50 for `CN(CC(=O)N(Cc1ccc(C2CCCCC2)cc1)c1ccc(C(=O)NO)cc1)S(=O)(=O)c1c(F)c(F)c(F)c(F)c1F` with BTSC73M: 1.52

* * *

# Tested on: BTSC30M
# Test Method Notes: alamarBlue cell viability, BTSC 30M
# Type: cell-based, human
# Measurement Conditions: Homo sapiens, read-out: 30M IC50 (μM); Table 4 library screen, alamarBlue
Reported Endpoint: IC50 (µM)
All answers are understood in µM, so give the number only.

Item: CCOC(=O)C(=O)Nc1ccc(N(Cc2ccc(C3CCCCC3)cc2)C(=O)CN(C)S(=O)(=O)c2c(F)c(F)c(F)c(F)c2F)cc1 [Compound 17] | System: BTSC30M | IC50: 0.694

Record CN(CC(=O)N(Cc1ccc(C2CCCCC2)cc1)c1ccc(C(=O)O)cc1)S(=O)(=O)c1c(F)c(F)c(F)c(F)c1F [Compound 31] / BTSC30M, IC50 recorded as 0.432

Per the reported BTSC30M data, CN(CC(=O)N(Cc1ccc(C2CCCCC2)cc1)c1cccc(O)c1)S(=O)(=O)c1c(F)c(F)c(F)c(F)c1F [Compound 30] has IC50 of 0.776

Measured on BTSC30M, CN(CC(=O)N(Cc1ccc(C2CCCCC2)cc1)c1ccc(NS(N)(=O)=O)cc1)S(=O)(=O)c1c(F)c(F)c(F)c(F)c1F [Compound 16] has a documented IC50 of 0.95

Item CN(CC(=O)N(Cc1ccc(C2CCCCC2)cc1)c1ccc(NS(C)(=O)=O)cc1)S(=O)(=O)c1c(F)c(F)c(F)c(F)c1F [Compound 14] was tested on BTSC30M; the reported IC50 is 0.718

Short answer on BTSC30M for CN(CC(=O)N(Cc1ccc(C2CCCCC2)cc1)c1ccc(O)cc1)S(=O)(=O)c1c(F)c(F)c(F)c(F)c1F [Compound 29] , IC50: 0.941

# value of IC50, BTSC30M, item COC(=O)c1ccc(N(Cc2ccc(C3CCCCC3)cc2)C(=O)CN(C)S(=O)(=O)c2c(F)c(F)c(F)c(F)c2F)cc1 [Compound 39] = 1.09

Observed IC50, BTSC30M, CC(=O)Oc1cc(N(Cc2ccc(C3CCCCC3)cc2)C(=O)CN(C)S(=O)(=O)c2c(F)c(F)c(F)c(F)c2F)ccc1C(=O)O [Compound 22] : 0.526

# IC50 measured on BTSC30M for item CN(CC(=O)N(Cc1ccc(C2CCCCC2)cc1)c1ccc(C(=O)O)c(F)c1)S(=O)(=O)c1c(F)c(F)c(F)c(F)c1F [Compound 33] = 0.724

# CN(CC(=O)N(Cc1ccc(C2CCCCC2)cc1)c1ccc(C#N)cc1)S(=O)(=O)c1c(F)c(F)c(F)c(F)c1F [Compound 34] with BTSC30M: IC50 is 2.23

Field IC50 (system: BTSC30M) for entry CN(CC(=O)N(Cc1ccc(C2CCCCC2)cc1)c1ccc(NS(=O)(=O)c2cncn2C)cc1)S(=O)(=O)c1c(F)c(F)c(F)c(F)c1F [Compound 15] = 0.607

Short answer on BTSC30M for CN(CC(=O)N(Cc1ccc(C2CCCCC2)cc1)c1ccc(O)c(C(=O)O)c1)S(=O)(=O)c1c(F)c(F)c(F)c(F)c1F [Compound 38] , IC50: 2.07

Bench note, BTSC30M: CN(CC(=O)N(Cc1ccc(C2CCCCC2)cc1)c1ccc(N)cc1)S(=O)(=O)c1c(F)c(F)c(F)c(F)c1F [Compound 10] , IC50 reads 1.33

Measured on BTSC30M, CN(CC(=O)N(Cc1ccc(C2CCCCC2)cc1)c1ccc([N+](=O)[O-])cc1)S(=O)(=O)c1c(F)c(F)c(F)c(F)c1F [Compound 8] has a documented IC50 of 0.522

// IC50 (BTSC30M) for CCOP(=O)(Cc1ccc(N(Cc2ccc(C3CCCCC3)cc2)C(=O)CN(C)S(=O)(=O)c2c(F)c(F)c(F)c(F)c2F)cc1)OCC [Compound 20] = 0.664

Recorded IC50 for CC(=O)OCOC(=O)c1ccc(N(Cc2ccc(C3CCCCC3)cc2)C(=O)CN(C)S(=O)(=O)c2c(F)c(F)c(F)c(F)c2F)cc1 [Compound 26] on BTSC30M was 1.95
